Consider the following binders and their measured pKd readings.
ASSAYED_SYSTEM: T1, cynomolgus IgE (recombinant chimaeric D12 variable region and cynomolgus IgE constant region) (cynomolgus monkey (constant region); …)
T1 construct: The entries may hold a leader peptide; also called cyno IgE; cynomolgus monkey IgE
T1 sequence (heavy, as listed by the source limits assumed, chain 1 of 2): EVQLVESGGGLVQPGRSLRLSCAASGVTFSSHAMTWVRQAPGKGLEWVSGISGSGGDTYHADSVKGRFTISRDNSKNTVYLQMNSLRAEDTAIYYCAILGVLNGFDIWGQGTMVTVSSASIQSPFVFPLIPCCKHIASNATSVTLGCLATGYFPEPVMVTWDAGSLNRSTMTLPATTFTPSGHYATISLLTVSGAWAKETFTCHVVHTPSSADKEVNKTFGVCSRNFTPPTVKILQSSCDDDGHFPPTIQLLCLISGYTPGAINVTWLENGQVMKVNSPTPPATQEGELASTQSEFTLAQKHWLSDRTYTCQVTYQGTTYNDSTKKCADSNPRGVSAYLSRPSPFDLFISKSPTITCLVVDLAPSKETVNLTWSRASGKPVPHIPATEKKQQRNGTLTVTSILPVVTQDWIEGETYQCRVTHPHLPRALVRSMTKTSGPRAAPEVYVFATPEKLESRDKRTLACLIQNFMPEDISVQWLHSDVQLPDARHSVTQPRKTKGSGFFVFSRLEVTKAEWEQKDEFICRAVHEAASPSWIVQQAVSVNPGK
T1 sequence (light, as listed by the source limits assumed, chain 2 of 2): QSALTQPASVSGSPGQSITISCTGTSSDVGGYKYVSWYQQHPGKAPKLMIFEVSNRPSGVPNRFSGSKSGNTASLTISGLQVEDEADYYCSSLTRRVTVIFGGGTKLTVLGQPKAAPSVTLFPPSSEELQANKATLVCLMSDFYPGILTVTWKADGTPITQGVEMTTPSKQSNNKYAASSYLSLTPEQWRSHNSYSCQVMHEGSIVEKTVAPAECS
PROTOCOL_SUMMARY: SPR BIAcore; IgG captured on protein G', IgE analyte, bivalent analyte fit; geomean
In textbook form, pKd equals minus log to base ten of the concentration in mol/L.

Solved entries (count: 2):
BINDER	ENDPOINT_RESULT
Antibody 16 IgG (antibody, V domains shown, Whole human IgG (section 1.4, IgG1)) VH: QVQLVQSGAEVKKPGATVKLSCKVYGYIFTDYNIYWVRQAPGKGLEWMGLIDPDNGETFYAEKFQGRATMTADTSSDRAYMELTSLTFEDTATYYCATVSLKSAKGGYDYWGRGTLVTVSS VL: QSVLTQPPSVSGAPGQRVTISCTGSSSNIGAGYDVHWYQQLPGTAPKLLIYDNFNRPSGVPDRFSGSKSGTSASLAIIGLQTEDEADYYCQSYDSRHHHAPFGTGTKLTVL	7.21
Antibody 12 IgG (antibody, V domains shown, Whole human IgG (section 1.4, IgG1)) VH: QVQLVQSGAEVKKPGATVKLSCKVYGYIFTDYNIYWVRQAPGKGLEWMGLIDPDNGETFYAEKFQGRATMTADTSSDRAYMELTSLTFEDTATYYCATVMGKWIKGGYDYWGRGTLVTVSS VL: QSVLTQPPSVSGAPGQRVTISCTGSSSNIGAGYDVHWYQQLPGTAPKLLIYDNFNRPSGVPDRFSGSKSGTSASLAIIGLQTEDEADYYCQSYDSSIDHSPFGTGTKLTVL	6.64

Moving on to the next binder.
Q. Sample Antibody 6 IgG (antibody, V domains shown, Whole human IgG (section 1.4, IgG1)) VH: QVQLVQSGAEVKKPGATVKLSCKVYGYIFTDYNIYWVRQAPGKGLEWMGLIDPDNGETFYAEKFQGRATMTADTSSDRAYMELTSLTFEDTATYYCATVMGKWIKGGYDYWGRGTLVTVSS VL: QSVLTQPPSVSGAPGQRVTISCTGSSSNIGAGYDVHWYQQLPGTAPKLLIYDNFNRPSGVPDRFSGSKSGTSASLAIIGLQTEDEADYYCQSYDSTMRHGPFGTGTKLTVL — what was its pKd?
A. 8.43

// provenance: patent US20140127212A1
